- TARGET OR SYSTEM: GLP-1 receptor (human, UniProt P43220 24-463)
- TEST DETAILS: cell-based or functional assay
Starred links: 1 amine or outer side, 2 acyl side, 3 side chain; linkers in the order of their positions; H or OH if unused. Non-standard residues stand in square brackets, D forms with d. Groups on a side chain read outwards from the residue. Primed or numbered codes have the meaning given here. No end group written: not given here. *: point of attachment. γGlu = O=C(O)[C@H](CCC(=O)[*:2])N[*:1]; Stearoyl = CCCCCCCCCCCCCCCCCC(=O)*; αMeF = C[C@](N)(Cc1ccccc1)C(=O)O; αMeK = C[C@](N)(CCCCN)C(=O)O; αMeS = C[C@](N)(CO)C(=O)O; PEG2′ = not defined here; Aib = CC(C)(N)C(=O)O
OBSERVABLE: Primary assay EC50 (cAMP), Mean pM GLP-1R (pM)

{"BINDER": "HXEGTFTXDVSSYLEGQAAKEFIAWLVKGR (Aib 2; Aib 8; C-terminal amide) [SEQ ID NO 20]", "OBS VALUE": 13400}
{"BINDER": "H[Aib]EGS[αMeF]TSDV[αMeS]SYLEGEAAK([PEG2′-PEG2′-PEG2′-Stearoyl])E[αMeF]IA[αMeF]VV[αMeK]GG-NH2 [SEQ ID NO 53]", "OBS VALUE": 0.9}
{"BINDER": "H[Aib]EGSFTSDV[αMeS]S[αMeF]LEGEAAK([PEG2′-PEG2′-γGlu-Stearoyl])E[αMeF]IA[αMeF]VV[αMeK]GG-NH2 [SEQ ID NO 45]", "OBS VALUE": 3560}

Reference source for all entries: patent US20200079833A1
